B1: ATE1 (parent)
chain: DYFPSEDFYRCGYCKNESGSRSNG

Variants of: B1
assay: protein stability index of a GFP-peptide fusion (GPS, HEK-293T) (PSI 1-6); higher = more stable;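 also: lentivirally expressed fusions sorted by FACS into six bins by GFP to DsRed ratio, PSI derived from sequencing read proportions per bin multiplied by bin number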
measurement-parameters: c terminus: a fixed tail appended
For each of the variants below, state its protein stability index.
API doc: respond with a numeric literal and nothing else, no unit.

Given the entry WYFPSEDFYRCGYCKNESGSRSNG [D1W] , report its measured protein stability index.
3.35

Given the entry DYFPSEDFYRCGYCQNESGSRSNG [K15Q] , report its measured protein stability index.
2.65

Given the entry DYMPSEDFYRCGYCKNESGSRSNG [F3M] , report its measured protein stability index.
2.99

Given the entry DYFPSTDFYRCGYCKNESGSRSNG [E6T] , report its measured protein stability index.
2.94

Given the entry DYFPSEDFYRCGYCKFESGSRSNG [N16F] , report its measured protein stability index.
1.62

Given the entry DYFPSEDFYRCGYCKNESGSRSNP [G24P] , report its measured protein stability index.
3

Given the entry DYFPSEDFVRCGYCKNESGSRSNG [Y9V] , report its measured protein stability index.
2.21

Given the entry DYFPSEDFYRCGYCKNESGSRSND [G24D] , report its measured protein stability index.
2.26

Given the entry DYFPSEDFYRCGYCKNFSGSRSNG [E17F] , report its measured protein stability index.
1.71

Given the entry DYFHSEDFYRCGYCKNESGSRSNG [P4H] , report its measured protein stability index.
1.29

Given the entry DYFPSFDFYRCGYCKNESGSRSNG [E6F] , report its measured protein stability index.
1.56

Given the entry DYFPSEDFYRCGYCKNESGSYSNG [R21Y] , report its measured protein stability index.
1.79

Given the entry DYFPSEDFYRCGYCKNESGSRSPG [N23P] , report its measured protein stability index.
1.91

Given the entry DYFPSEDFYRCGYCKNESGSRSHG [N23H] , report its measured protein stability index.
2.16

Given the entry DIFPSEDFYRCGYCKNESGSRSNG [Y2I] , report its measured protein stability index.
2.09

Given the entry DYFPAEDFYRCGYCKNESGSRSNG [S5A] , report its measured protein stability index.
2.19

Given the entry DYFPSEDFYRGGYCKNESGSRSNG [C11G] , report its measured protein stability index.
4.36

Given the entry DYFPSEDFYRCGYCKNESGSSSNG [R21S] , report its measured protein stability index.
2.22

Given the entry DYFPSEDFYRCGYIKNESGSRSNG [C14I] , report its measured protein stability index.
3.97

Given the entry DYFPSEDKYRCGYCKNESGSRSNG [F8K] , report its measured protein stability index.
2.49

Given the entry DYFPSEDFYRCGYCKNESGSRSNS [G24S] , report its measured protein stability index.
1.62

Given the entry DYFPSELFYRCGYCKNESGSRSNG [D7L] , report its measured protein stability index.
2.29

Given the entry DYFPSEGFYRCGYCKNESGSRSNG [D7G] , report its measured protein stability index.
1.85

Given the entry DKFPSEDFYRCGYCKNESGSRSNG [Y2K] , report its measured protein stability index.
2.38

Given the entry DYFPSEDFYRCGYCLNESGSRSNG [K15L] , report its measured protein stability index.
1.82

Given the entry DYFPSEDFYRCGYCKNETGSRSNG [S18T] , report its measured protein stability index.
2.07

Given the entry DYFPSEDFYRCGYCKNESHSRSNG [G19H] , report its measured protein stability index.
2.03

Given the entry DYFPSEDFYRCGYCKNESYSRSNG [G19Y] , report its measured protein stability index.
1.6

Given the entry DYFPSEDRYRCGYCKNESGSRSNG [F8R] , report its measured protein stability index.
2.91

Given the entry DYFPSEDFYRCGYCKNEIGSRSNG [S18I] , report its measured protein stability index.
1.53

Given the entry YYFPSEDFYRCGYCKNESGSRSNG [D1Y] , report its measured protein stability index.
3.1

Given the entry DYFPSEDFYRCGYCKNESGSKSNG [R21K] , report its measured protein stability index.
2.61

Given the entry DYFPREDFYRCGYCKNESGSRSNG [S5R] , report its measured protein stability index.
1.7

Given the entry DYFPSEDFYRCPYCKNESGSRSNG [G12P] , report its measured protein stability index.
1.93

Given the entry DYFPSEDCYRCGYCKNESGSRSNG [F8C] , report its measured protein stability index.
2.54

Given the entry DYFPSEDFYRCGYCKNESGSNSNG [R21N] , report its measured protein stability index.
2.47

Given the entry DYFPSEDFYRCGYCGNESGSRSNG [K15G] , report its measured protein stability index.
1.95

Given the entry DYFPNEDFYRCGYCKNESGSRSNG [S5N] , report its measured protein stability index.
1.61

Given the entry DYFPSEDFYRCGYCKDESGSRSNG [N16D] , report its measured protein stability index.
2.79

Given the entry DYIPSEDFYRCGYCKNESGSRSNG [F3I] , report its measured protein stability index.
2.27

Given the entry DMFPSEDFYRCGYCKNESGSRSNG [Y2M] , report its measured protein stability index.
1.36

Given the entry DYFPSEDFYRCCYCKNESGSRSNG [G12C] , report its measured protein stability index.
2.01

Given the entry DYFPSEDFYRCGYCKNVSGSRSNG [E17V] , report its measured protein stability index.
1.4

Given the entry DYFPSEDFYRCGYCKNKSGSRSNG [E17K] , report its measured protein stability index.
2.33

Given the entry DYFPSEIFYRCGYCKNESGSRSNG [D7I] , report its measured protein stability index.
1.11

Given the entry DYFNSEDFYRCGYCKNESGSRSNG [P4N] , report its measured protein stability index.
2.16

Given the entry DYFPCEDFYRCGYCKNESGSRSNG [S5C] , report its measured protein stability index.
1.52

Given the entry DYFPSETFYRCGYCKNESGSRSNG [D7T] , report its measured protein stability index.
2.15

Given the entry DYFPSEDFYRCGYCKNEVGSRSNG [S18V] , report its measured protein stability index.
2.17

Given the entry DYFPSEDFYRCGYCKNYSGSRSNG [E17Y] , report its measured protein stability index.
1.49

Given the entry DYFPSEDFYRCGYCKNESGSRSNY [G24Y] , report its measured protein stability index.
2.13

Given the entry DYFPSEDVYRCGYCKNESGSRSNG [F8V] , report its measured protein stability index.
3.1

Given the entry DYFPSEDFYRCGYCKNESISRSNG [G19I] , report its measured protein stability index.
2.65

Given the entry TYFPSEDFYRCGYCKNESGSRSNG [D1T] , report its measured protein stability index.
2.24

Given the entry DYFPSEDFYRCGYCKNTSGSRSNG [E17T] , report its measured protein stability index.
2.77

Given the entry DYFPSEDFYRCGYCMNESGSRSNG [K15M] , report its measured protein stability index.
3.08

Given the entry DFFPSEDFYRCGYCKNESGSRSNG [Y2F] , report its measured protein stability index.
1.82

Given the entry DYFPSEDFYRCGYCKNERGSRSNG [S18R] , report its measured protein stability index.
1.68

Given the entry DYFPSEDFYRCGYYKNESGSRSNG [C14Y] , report its measured protein stability index.
3.04

Given the entry DYFPSEDFYRCGYCKNESGSASNG [R21A] , report its measured protein stability index.
2.54

Given the entry DYYPSEDFYRCGYCKNESGSRSNG [F3Y] , report its measured protein stability index.
2.14

Given the entry DYFISEDFYRCGYCKNESGSRSNG [P4I] , report its measured protein stability index.
1.45

Given the entry DYFPSEDFYRCGYCKNSSGSRSNG [E17S] , report its measured protein stability index.
1.83

Given the entry DYFPSEDFYRKGYCKNESGSRSNG [C11K] , report its measured protein stability index.
4.17

Given the entry DYFPSEDFYPCGYCKNESGSRSNG [R10P] , report its measured protein stability index.
2.47

Given the entry DRFPSEDFYRCGYCKNESGSRSNG [Y2R] , report its measured protein stability index.
4.56

Given the entry DYFPSEDFYRCGYCKVESGSRSNG [N16V] , report its measured protein stability index.
1.74

Given the entry DYFPSEDFYRSGYCKNESGSRSNG [C11S] , report its measured protein stability index.
3.54

Given the entry DYFPSEDFYRCGYCKNWSGSRSNG [E17W] , report its measured protein stability index.
1.78

Given the entry DYFPSEDFYRCGYCKNESGSRSNA [G24A] , report its measured protein stability index.
1.88

Given the entry DYFPSCDFYRCGYCKNESGSRSNG [E6C] , report its measured protein stability index.
1.85

Given the entry DYFPSEDFYRCGYCKNEEGSRSNG [S18E] , report its measured protein stability index.
2.53

Given the entry DYFPSEDFYRCGYCKHESGSRSNG [N16H] , report its measured protein stability index.
2

Given the entry DYFPSEDFYRCGYCSNESGSRSNG [K15S] , report its measured protein stability index.
2.42

Given the entry DYFPSEDFYRCGYCKNESGSRSNW [G24W] , report its measured protein stability index.
1.78

Given the entry DYFPSEDFYRCRYCKNESGSRSNG [G12R] , report its measured protein stability index.
4.05

Given the entry DYFPSEDFYRPGYCKNESGSRSNG [C11P] , report its measured protein stability index.
4.15

Given the entry DYFPSEDFYLCGYCKNESGSRSNG [R10L] , report its measured protein stability index.
1.69
